Biological target: UniProtKB P08913
Sequence (P08913 whole entry): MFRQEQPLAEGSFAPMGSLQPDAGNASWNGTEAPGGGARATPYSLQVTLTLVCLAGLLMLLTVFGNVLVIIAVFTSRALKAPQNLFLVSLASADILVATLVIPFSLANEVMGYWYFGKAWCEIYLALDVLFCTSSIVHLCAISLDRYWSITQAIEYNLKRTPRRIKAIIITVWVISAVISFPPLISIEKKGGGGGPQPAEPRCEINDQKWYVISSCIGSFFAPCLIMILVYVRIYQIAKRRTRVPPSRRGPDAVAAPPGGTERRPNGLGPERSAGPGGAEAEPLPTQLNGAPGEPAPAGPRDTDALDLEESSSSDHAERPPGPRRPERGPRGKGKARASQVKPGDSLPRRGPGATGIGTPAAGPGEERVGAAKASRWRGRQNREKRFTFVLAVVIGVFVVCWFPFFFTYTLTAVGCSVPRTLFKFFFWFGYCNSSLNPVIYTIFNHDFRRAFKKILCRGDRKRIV
Assay: Receptor binding, [3H]-rauwolscine
Excerpt: Table 3 Monoamine transporter and receptor binding affinities of pyrovalerone and NEH. | column: α2A / Receptor Binding / Ki ± SD [μM] / [^3H]-Rauwolscine
pKi: −log10 of the molar value.
measured-property: pKi

Challenge: Any idea what pKi was measured for Cc1ccc(C(=O)C(C)N2CCCC2)cc1 (stereo not shown) ?
Response given: < 5.33

====

Molecular target: h5-HT2A receptor (Homo sapiens, UniProt P28223)
Sequence (P28223 whole entry): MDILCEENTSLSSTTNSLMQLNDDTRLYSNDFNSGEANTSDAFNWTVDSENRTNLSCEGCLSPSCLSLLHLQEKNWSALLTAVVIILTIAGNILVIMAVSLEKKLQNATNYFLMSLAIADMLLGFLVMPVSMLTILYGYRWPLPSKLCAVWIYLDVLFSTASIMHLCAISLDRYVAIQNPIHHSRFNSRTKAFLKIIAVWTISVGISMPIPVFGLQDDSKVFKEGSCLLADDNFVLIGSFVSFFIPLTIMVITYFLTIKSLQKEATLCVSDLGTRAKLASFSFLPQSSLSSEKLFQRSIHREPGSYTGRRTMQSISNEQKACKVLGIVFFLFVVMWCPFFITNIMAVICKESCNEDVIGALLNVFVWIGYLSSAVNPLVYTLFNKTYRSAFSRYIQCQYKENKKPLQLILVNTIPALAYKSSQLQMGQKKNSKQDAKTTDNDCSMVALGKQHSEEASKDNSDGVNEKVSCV
Assay: Activation potency, FLIPR calcium assay in NIH-3T3 cells
Type: cell-based
Design: expressed in transfected cells
Property: EC50; scope: individual molecules

molecule	system-tested	result
CC(C(=O)c1ccc2c(c1)OCO2)N1CCCC1 (centres unmarked)	h5-HT2A receptor (Homo sapiens, UniProt P28223)	> 20 µM

We next turn to a different molecule, shown below.
Challenge: h5-HT2A receptor (Homo sapiens, UniProt P28223) / EC50 / CCCCC(C(=O)c1ccc(C)cc1)N1CCCC1 (centres unmarked) : value?
Response given: > 20 µM

====

# key: entry, value: pIC50
Biological target: human serotonin (hSERT) uptake transporter (Homo sapiens)
Sequence (P31645 whole entry): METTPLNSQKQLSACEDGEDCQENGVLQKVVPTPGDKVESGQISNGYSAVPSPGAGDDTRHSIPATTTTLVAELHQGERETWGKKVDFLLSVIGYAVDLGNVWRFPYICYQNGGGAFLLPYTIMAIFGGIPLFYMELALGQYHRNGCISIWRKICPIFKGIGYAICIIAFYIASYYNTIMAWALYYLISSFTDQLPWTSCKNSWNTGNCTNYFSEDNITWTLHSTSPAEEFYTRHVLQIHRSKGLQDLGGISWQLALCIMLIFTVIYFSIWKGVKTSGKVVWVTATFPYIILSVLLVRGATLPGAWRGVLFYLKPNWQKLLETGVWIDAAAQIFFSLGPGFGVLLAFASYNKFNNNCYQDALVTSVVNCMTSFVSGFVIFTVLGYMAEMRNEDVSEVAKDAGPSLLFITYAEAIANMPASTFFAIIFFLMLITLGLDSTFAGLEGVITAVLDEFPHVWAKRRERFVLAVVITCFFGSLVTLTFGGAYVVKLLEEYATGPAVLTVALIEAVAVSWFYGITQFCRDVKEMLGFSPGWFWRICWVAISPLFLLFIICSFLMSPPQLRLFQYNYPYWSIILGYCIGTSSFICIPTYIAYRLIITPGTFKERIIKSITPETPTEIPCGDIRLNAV
Assay: Monoamine uptake inhibition, serotonin uptake in transfected HEK293 cells
pIC50 is a log-scale quantity: -log10 of the concentration expressed in molar.

molecule	system-tested	pIC50
CNC(C)Cc1ccc2c(c1)OCO2 (centres unmarked) [MDMA, 3,4-methylenedioxymethamphetamine, reference compound]	human serotonin (hSERT) uptake transporter (Homo sapiens)	5.80

Challenge: For the molecule COc1ccc(C(=O)C(C)N2CCCC2)cc1 (centres unmarked) , what pIC50 is on record?
Response given: 4.03

Challenge: Would you mind doing CCCCC(C(=O)c1ccc(C)cc1)N1CCCC1 (centres unmarked) as well?
Response given: 4.96

Challenge: What about CCC(C(=O)c1ccc(F)cc1)N1CCCC1 (centres unmarked) ?
Response given: 3.75

Challenge: Next record, please: CCCC(C(=O)c1ccc2c(c1)OCO2)N1CCCC1 (centres unmarked)
Response given: 5.08

Challenge: Please give the result for CCCC(C(=O)c1ccc(C)cc1)N1CCCC1 (centres unmarked) too.
Response given: 4.89

Challenge: What do you have for CCC(C(=O)c1ccc2c(c1)OCO2)N1CCCC1 (centres unmarked) ?
Response given: 4.96

Challenge: Then what about the molecule CC(C(=O)c1ccc2c(c1)OCO2)N1CCCC1 (centres unmarked) ?
Response given: 4.37

====

Molecular target: h5-HT2A receptor (Homo sapiens)
Test: Radioligand binding, [3H]-ketanserin
Parameters: expressed in transfected cells; host or cells: HEK293 cell preparations
pKi: −log10 of the molar value.
# pKi listing for each entry below

Use these answered entries as a reference point.
compound	system-tested	pKi
CCCC(C(=O)c1ccc(C)cc1)N1CCCC1 (stereo not drawn) [Pyrovalerone, pyrovalerone]	h5-HT2A receptor (Homo sapiens)	< 4.89
CCC(C(=O)c1ccc2c(c1)OCO2)N1CCCC1 (stereo not drawn) [MDPBP]	h5-HT2A receptor (Homo sapiens)	< 4.89

Next compound, pKi to be filled in.
Challenge: # pKi lookup, item CCCCC(NCC)C(=O)c1ccccc1 (stereo not drawn) [NEH, N-ethylamine-hexanophenone]
Response given: < 4.89

====

Parameter Ki: see the listing below.
Target: h5-HT2A receptor (Homo sapiens, UniProt P28223)
Assay: Radioligand binding, [3H]-ketanserin
Design: expressed in transfected cells; host or cells: HEK293 cell preparations

molecule	Ki
CCC(C(=O)c1ccc(F)cc1)N1CCCC1 (stereo not shown)	> 13 µM

Challenge: Any idea what its Ki is? The molecule is CCCC(C(=O)c1ccc2c(c1)OCO2)N1CCCC1 (stereo not shown)
Response given: > 13 µM

Challenge: Repeat with CCCCC(C(=O)c1ccc2c(c1)OCO2)N1CCCC1 (stereo not shown)
Response given: > 13 µM

Challenge: Another molecule to look at: CCCCC(C(=O)c1ccc(C)cc1)N1CCCC1 (stereo not shown)
Response given: 7.3 µM

Challenge: Likewise for CCCCC(C(=O)c1ccccc1)N1CCCC1 (stereo not shown) ?
Response given: > 13 µM

Challenge: Lookup CC(C(=O)c1ccccc1)N1CCCC1 (stereo not shown)
Response given: 1.1 µM

Challenge: Now consider CCCC(C(=O)c1ccccc1)N1CCCC1 (stereo not shown) and answer again.
Response given: > 13 µM
